test system: CYP3A4/5; test: CYP inhibition in human liver microsomes (midazolam); format: in vitro ADME; conditions: midazolam substrate, read-out: CYP inhibition IC50 3A-M
pIC50: −log10 of the molar value.
PROPERTY_NAME: pIC50

Assign pIC50 to the following record: COc1ccc2c3c([nH]c2c1)[C@H](CC(C)C)N1C(=O)[C@H](CCC(=O)OC(C)(C)C)NC(=O)[C@@H]1C3 [Ko143, reference compound]
< 4.52

----------
target: BCRP efflux transporter (Homo sapiens (Human), UniProt Q9UNQ0); experiment: Bi-directional transport study in Caco-2 cells, inhibition of BCRP efflux of 3H-estrone-3-sulfate
Sequence (Q9UNQ0 whole entry): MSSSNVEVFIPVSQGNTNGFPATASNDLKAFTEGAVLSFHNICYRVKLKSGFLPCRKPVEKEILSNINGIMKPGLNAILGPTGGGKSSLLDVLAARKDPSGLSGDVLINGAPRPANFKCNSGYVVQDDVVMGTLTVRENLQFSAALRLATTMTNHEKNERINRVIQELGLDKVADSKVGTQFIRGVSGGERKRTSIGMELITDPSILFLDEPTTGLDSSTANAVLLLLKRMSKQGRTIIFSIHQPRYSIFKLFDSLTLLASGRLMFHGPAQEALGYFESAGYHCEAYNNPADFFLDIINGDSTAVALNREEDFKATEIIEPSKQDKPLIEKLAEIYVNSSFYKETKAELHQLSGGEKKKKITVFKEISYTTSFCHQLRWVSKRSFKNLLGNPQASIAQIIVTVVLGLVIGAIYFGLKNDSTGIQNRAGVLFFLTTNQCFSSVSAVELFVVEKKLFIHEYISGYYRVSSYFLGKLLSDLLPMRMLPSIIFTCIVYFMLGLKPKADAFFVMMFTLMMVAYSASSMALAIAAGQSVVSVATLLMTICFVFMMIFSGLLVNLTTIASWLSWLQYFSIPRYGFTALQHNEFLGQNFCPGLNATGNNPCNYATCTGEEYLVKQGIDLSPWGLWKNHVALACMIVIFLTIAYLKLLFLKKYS
PROPERTY_NAME: pIC50
Scale: pIC50 equals -log10([C]), with [C] in mol/L.

Check BCRP efflux transporter (Homo sapiens (Human), UniProt Q9UNQ0) data and give pIC50 for CC(C)C[C@H]1c2[nH]c3ccccc3c2C[C@H]2C(=O)N[C@@H](CCC(=O)OC(C)(C)C)C(=O)N21 [Ko134, reference compound] .
5.49
